System: Hs-578T
Assay Details: NCI tumour cell line growth inhibition, 48 h
Active and inactive are the calls of the source. Cut-off read from the data, not from the text of the source: active = GI50 up to about 1.1 µM and inactive = higher.
I'd appreciate it if you could supply GI50 values for the items below.

As a guide, the following entries are already answered.
>  <Molecule>
CCn1ncc2c(=O)n3ncn(-c4ccc(Br)cc4)c3nc21

>  <Target Or System>
Hs-578T

>  <Result>
> 100 µM (inactive)

$$$$
>  <Molecule>
Cc1ccc(NC(=O)C(Cc2c[nH]c3ccccc23)NC(=O)Oc2ccccc2)cc1C (stereo unspecified)

>  <Target Or System>
Hs-578T

>  <Result>
38.3 µM (inactive)

$$$$
>  <Molecule>
O=C(NC(CCCCN1C(=O)c2ccccc2C1=O)P(=O)(Oc1ccccc1)Oc1ccccc1)OCc1ccccc1 (stereo unspecified)

>  <Target Or System>
Hs-578T

>  <Result>
> 100 µM (inactive)

$$$$
>  <Molecule>
COc1cccc(OC)c1NC(=O)C(=O)Nn1c(NNC(=O)c2ccncc2)nc2ccccc2c1=O

>  <Target Or System>
Hs-578T

>  <Result>
> 100 µM (inactive)

$$$$

For every item in the list below, what is its measured GI50?
1. COc1ccc2c(-c3ccc(OCCN(C)C)cc3)c(Oc3ccc(Cl)cc3)c(=O)oc2c1
2. CCOC(C/N=c1/nc(N(C)C)ss1)OCC
3. Cc1nnc2n1-c1ccccc1C(=S)N1CSCC21 (stereo unspecified)
4. O=C1C=Cc2c(Br)sc(Br)c21
5. COc1ccc(/C=C2\N=C(c3ccccc3)N(NC3=NC(=O)CC(=O)N3)C2=O)cc1
6. COc1ccc(C(=O)/C=C/c2ccc(OCC(=O)N3CCN(c4ccccc4)CC3)cc2)cc1
7. CC1=Nc2ccccc2/C1=C\c1c(C)[nH]c2ccccc12
8. COc1ccc(C(=CCC(C)C2CCC3[C@@H]4C(OC(C)=O)CC5CC(OC(C)=O)CC[C@]5(C)C4CC(OC(C)=O)[C@]23C)c2ccc(OC)cc2)cc1 (stereo partly specified)

A)
1. 6.01 µM (inactive)
2. > 54.8 µM (inactive)
3. > 100 µM (inactive)
4. 29.2 µM (inactive)
5. > 100 µM (inactive)
6. > 40.7 µM (inactive)
7. 8.63 µM (inactive)
8. > 100 µM (inactive)

Go through the items and report each one's GI50.
1. CCOC(=O)c1nc2cc(C(F)(F)F)ccc2nc1Nc1ccc(OC)cc1
2. COC(Cc1ccccc1)NC(C)=O (stereo unspecified)
3. CCOC(=O)C(NCc1ccc2c(c1)OCO2)(NC(=O)c1ccccc1)C(F)(F)F (stereo unspecified)
4. O=C1c2ccccc2C(=O)N1n1c(Cc2ccc(Cl)cc2)n[nH]c1=O
5. CN(C)CCCNc1c(C#N)[n+]([O-])c2cc(Cl)ccc2[n+]1[O-]
6. C/C=C\C(CC(=O)NCCC1CN(S(=O)(=O)c2ccc(C)cc2)c2ccccc21)CC(=O)OC (stereo unspecified)
7. CC12C=CC(=O)C=C1CCC1C3CCC(O)(C(=O)CO)C3(C)CC(O)C12F (stereo unspecified)
8. CN1CCN(Cn2nc(-c3ccccc3)n(/N=C/c3ccc(-c4ccc(Cl)cc4Cl)o3)c2=S)CC1

A)
54.1 µM (inactive)
> 100 µM (inactive)
> 100 µM (inactive)
> 100 µM (inactive)
31.6 µM (inactive)
> 100 µM (inactive)
> 100 µM (inactive)
7.91 µM (inactive)

Q) Reported GI50, molecule CC(Cc1ccc(O)cc1)NCC(O)c1ccc(O)c(O)c1 (stereo unspecified) : ____
A) > 100 µM (inactive)

====

System: BT-549
Assay Details: NCI tumour cell line growth inhibition, 48 h
Active and inactive are the calls of the source. Cut-off read from the data, not from the text of the source: active = GI50 up to about 1.1 µM and inactive = higher.
Readout Name: GI50

>  <Molecule>
COc1ccc(Cc2c(N)[nH]c(=O)[nH]c2=O)cc1

>  <GI50>
> 100 µM (inactive)

$$$$
>  <Molecule>
CCOC(=O)CCC(NC(=O)OCc1ccccc1)C(=O)NC(CCC(=O)OCC)C(=O)NC(CCC(=O)OCC)C(=O)NC(CCC(=O)OCC)C(=O)NC(CCC(=O)OCC)C(=O)OCC (stereo not drawn)

>  <GI50>
> 100 µM (inactive)

$$$$

Q) Entry under review: O=C1CC=C2C3CC4N(CCC45c4ccccc4N1C25)C/C3=C\CO (stereo not drawn) . Reported GI50?
A) > 100 µM (inactive)

====

Give GI50 for every item shown.
Test system: A549
Assay Details: NCI tumour cell line growth inhibition, 48 h
The source made the active and inactive calls. Cut-off read from the data, not from the text of the source: active = GI50 up to about 1.1 µM and inactive = higher.

>  <Smiles Representation>
O=C1C[C@H](Sc2ccccc2)C2(OCCO2)[C@@H](Sc2ccccc2)C1

>  <Readout Name>
GI50

>  <Result>
1.87 µM (inactive)

$$$$
>  <Smiles Representation>
O=c1c2nc[nH]c2n(-c2ccccc2)c(=S)n1-c1ccccc1

>  <Readout Name>
GI50

>  <Result>
> 100 µM (inactive)

$$$$
>  <Smiles Representation>
CCn1ncc2c(=O)n3ncn(-c4ccc(Br)cc4)c3nc21

>  <Readout Name>
GI50

>  <Result>
> 100 µM (inactive)

$$$$
>  <Smiles Representation>
COC(=O)C(Cl)=C1CC1

>  <Readout Name>
GI50

>  <Result>
> 100 µM (inactive)

$$$$
>  <Smiles Representation>
CCOC(=O)/C=C\c1c(Cl)n(-c2ccccc2)c(=O)n(-c2ccccc2)c1=O

>  <Readout Name>
GI50

>  <Result>
25.1 µM (inactive)

$$$$

Q) Request: GI50, test system A549, entry `NC(=O)C(=CNC(=S)Nc1ccc(Cl)c(Cl)c1)C(N)=O`
A) > 100 µM (inactive)

====

System: Malme-3M
Assay Details: NCI tumour cell line growth inhibition, 48 h
Calls of active or inactive are those of the source. Cut-off read from the data, not from the text of the source: active = GI50 up to about 1.1 µM and inactive = higher.
Readout Name: GI50

I would be grateful if you could provide GI50 for each of the following entries.
1. COc1ccc(/N=C(\C)c2ccncc2)cc1
2. COc1ccc(C2=NN(c3ccccc3)C[N+](c3ccc(C)cc3)=N2)cc1

A)
1. > 100 µM (inactive)
2. 48.3 µM (inactive)

Quick one: give me GI50 for each item below, same order please.
1. FC(F)(F)c1ccc(Cc2nc3cc4ccccc4cc3[nH]2)cc1
2. CC1=C(CO)C(=O)O[C@@H]([C@@H](C)[C@H]2CC[C@H]3[C@@H]4C[C@@H](O)[C@@]5(O)CC=CC(=O)[C@]5(C)[C@H]4CC[C@]23C)C1 [JABOROSALACTONE D]

A)
["> 100 µM (inactive)", "15.7 µM (inactive)"]

====

System: UACC-257
Assay Details: NCI tumour cell line growth inhibition, 48 h
The source made the active and inactive calls. No stated cut-off is given here; in the data, active = GI50 up to about 1.1 µM and inactive = higher. Where a SMILES comes first, the peptide text is derived from it.
In this exercise, the only acceptable responses are yes (active), no (inactive)

Previously resolved entries follow.
>  <Compound>
O=C1C(=CNc2ccccc2Cl)C(=O)N(c2ccccc2)C(=O)N1c1ccccc1

>  <Target Or System>
UACC-257

>  <Assigned Label>
no

$$$$
>  <Compound>
CNC(=O)Oc1ccc(C(=S)Nc2ccc(Br)cc2)cc1

>  <Target Or System>
UACC-257

>  <Assigned Label>
no

$$$$
>  <Compound>
Cc1csc(/N=C(/NCCN2CCOCC2)Nc2nc(C)cs2)n1

>  <Target Or System>
UACC-257

>  <Assigned Label>
no

$$$$
>  <Compound>
CC(C)[C@@H]1CC[C@@H](C)C[C@H]1OC(=O)c1c2n(c3ccccc13)C[C@H]1OC(C)(C)O[C@@H]21

>  <Target Or System>
UACC-257

>  <Assigned Label>
no

$$$$
>  <Compound>
COc1ccc(/C(C)=N/NC(=O)c2ccncc2)c(OC)c1

>  <Target Or System>
UACC-257

>  <Assigned Label>
no

$$$$

Q) Any idea what this test logged for Cc1ccc(NC(=O)C(Cc2c[nH]c3ccccc23)NC(=O)Oc2ccccc2)cc1C (stereo not given) ?
A) no

Q) Hey, what did the test say about CC(=O)O[C@H]1CCC2[C@@H]3CCC4c5nonc5CC[C@]4(C)C3CC[C@@]21C (stereo not given in full) ?
A) no

Q) Status in this test for CCC(C)C1NC(=O)C2CCCN2C(=O)CNC(=O)C(C)NC(=O)C(Cc2ccccc2)NC(=O)C(C(C)C)NC1=O (stereo not given) (cyclo(GPIVFA); configuration not given here) ?
A) no

Q) Assay result, entry C/C(=C\c1csc(C)n1)[C@@H]1C[C@@H]2O[C@]2(C)CCC[C@H](C)[C@H](O)[C@@H](C)C(=O)C(C)(C)[C@@H](O)CC(=O)O1 [PATUPILONE] — outcome?
A) yes

Q) Which outcome was assigned to `Cc1ccc(/N=N/C(=N\NC(=O)c2ccc(C)cc2)c2ccc(N(CCC#N)CCC#N)cc2C)cc1` in this test?
A) no

Q) Would you mind telling me which call this test gave CCCCCC(O)[C@H]1C(=O)C[C@@H](O[Si](C)(C)C(C)(C)C)[C@@H]1/C=C/CCOCc1ccccc1 (stereo not given in full) ?
A) no

Q) What classification did CCOC(=O)C1=C(N2CCCC2)C(=O)C(C(=O)OCC)C1 (stereo not given) end up with in this test?
A) no

Q) Hi team, can someone confirm the assay call for `O=C(c1cccs1)N(C(=O)N1CCN(c2ccccc2)CC1)S(=O)(=O)c1ccccc1` ?
A) no
